Test system: COR-L23
Assay: relative viability (nuclei count vs DMSO), 5 days (fraction); higher = more cells survive
Conditions: first compound 8 µM
The threshold is 0.4. Values of relative viability beneath it are tagged Y; values meeting or exceeding it are tagged N.

Nc1cccc2c1CN(C1CCC(=O)NC1=O)C2=O (configuration not stated) [Lenalidomide] + C[C@@H](Oc1cc(-c2cnn(C3CCNCC3)c2)cnc1N)c1c(Cl)ccc(F)c1Cl [Crizotinib] (partner 1 µM)	N
Nc1cccc2c1CN(C1CCC(=O)NC1=O)C2=O (configuration not stated) [Lenalidomide] + COc1cccc2cc(-c3nc([C@H]4CC[C@H](C(=O)O)CC4)n4ncnc(N)c34)[nH]c12 [OSI-027] (partner 0.5 µM)	N
Nc1cccc2c1CN(C1CCC(=O)NC1=O)C2=O (configuration not stated) [Lenalidomide] + Nc1nc2[nH]cc(CCc3ccc(C(=O)N[C@@H](CCC(=O)O)C(=O)O)cc3)c2c(=O)[nH]1 [Pemetrexed] (partner 0.2 µM)	Y
Nc1cccc2c1CN(C1CCC(=O)NC1=O)C2=O (configuration not stated) [Lenalidomide] + C[C@]1(O)C[C@@H](c2nc(-c3ccc4ccc(-c5ccccc5)nc4c3)c3c(N)nccn32)C1 [Linsitinib] (partner 1 µM)	N
Nc1cccc2c1CN(C1CCC(=O)NC1=O)C2=O (configuration not stated) [Lenalidomide] + CC(=O)c1c(C)c2cnc(Nc3ccc(N4CCNCC4)cn3)nc2n(C2CCCC2)c1=O [Palbociclib] (partner 0.5 µM)	Y

From here, focus on the item given below.
In the record for Nc1cccc2c1CN(C1CCC(=O)NC1=O)C2=O (configuration not stated) [Lenalidomide] + Cc1nc(Nc2ncc(C(=O)Nc3c(C)cccc3Cl)s2)cc(N2CCN(CCO)CC2)n1 [Dasatinib] (partner 0.075 µM) , is relative viability less than 0.4?
N

---

Tested on: HARA
Assay: relative viability (nuclei count vs DMSO), 5 days (fraction); higher = more cells survive
Conditions: first compound 0.6325 µM
Attribute: relative viability
Just the number.

Solved entries (count: 3):
CN1CCN(CCOc2cc(OC3CCOCC3)c3c(Nc4c(Cl)ccc5c4OCO5)ncnc3c2)CC1 [Saracatinib] + O=C(CCCCCCC(=O)Nc1ccccc1)NO [Vorinostat] (partner 1 µM)	0.62
CN1CCN(CCOc2cc(OC3CCOCC3)c3c(Nc4c(Cl)ccc5c4OCO5)ncnc3c2)CC1 [Saracatinib] + CC1(C)CCC(c2ccc(Cl)cc2)=C(CN2CCN(c3ccc(C(=O)NS(=O)(=O)c4ccc(N[C@H](CCN5CCOCC5)CSc5ccccc5)c(S(=O)(=O)C(F)(F)F)c4)cc3)CC2)C1 [Navitoclax] (partner 0.5 µM)	1.1
CN1CCN(CCOc2cc(OC3CCOCC3)c3c(Nc4c(Cl)ccc5c4OCO5)ncnc3c2)CC1 [Saracatinib] + Nc1ncn([C@H]2C[C@H](O)[C@@H](CO)O2)c(=O)n1 [Decitabine] (partner 2 µM)	0.465

As a next step, examine the molecule that follows.
For the molecule CN1CCN(CCOc2cc(OC3CCOCC3)c3c(Nc4c(Cl)ccc5c4OCO5)ncnc3c2)CC1 [Saracatinib] + C[C@@H](Oc1cc(-c2cnn(C3CCNCC3)c2)cnc1N)c1c(Cl)ccc(F)c1Cl [Crizotinib] (partner 1 µM) , give its measured relative viability value.
0.829

---

Tested on: LOU-NH91
Assay: relative viability (nuclei count vs DMSO), 5 days (fraction); higher = more cells survive
Settings: first compound 0.2 µM
Recorded relative viability, one value per entry.
Give your answer as a number; write no unit.

CN1CCN(CCOc2cc(OC3CCOCC3)c3c(Nc4c(Cl)ccc5c4OCO5)ncnc3c2)CC1 [Saracatinib] + COc1cccc2cc(-c3nc([C@H]4CC[C@H](C(=O)O)CC4)n4ncnc(N)c34)[nH]c12 [OSI-027] (partner 0.5 µM)	0.556
CCNC(=O)c1noc(-c2cc(C(C)C)c(O)cc2O)c1-c1ccc(CN2CCOCC2)cc1 [Luminespib] + CS(=O)(=O)CCNCc1ccc(-c2ccc3ncnc(Nc4ccc(OCc5cccc(F)c5)c(Cl)c4)c3c2)o1 [Lapatinib] (partner 2 µM)	0.342
CCNC(=O)c1noc(-c2cc(C(C)C)c(O)cc2O)c1-c1ccc(CN2CCOCC2)cc1 [Luminespib] + Cc1nc(NC(=O)N2CCC[C@H]2C(N)=O)sc1-c1ccnc(C(C)(C)C(F)(F)F)c1 [Alpelisib] (partner 2 µM)	0.381

Report relative viability for CCNC(=O)c1noc(-c2cc(C(C)C)c(O)cc2O)c1-c1ccc(CN2CCOCC2)cc1 [Luminespib] + NC(=O)Nc1cc(-c2cccc(F)c2)sc1C(=O)N[C@H]1CCCNC1 [AZD7762] (partner 0.2 µM)
0.318

Quick one: give measured relative viability for Cc1csc(=NC2CCCCC2)n1/N=C/c1ccc(O)c(O)c1O [MIM1] + COc1cc2c(Oc3ccc(NC(=O)C4(C(=O)Nc5ccc(F)cc5)CC4)cc3F)ccnc2cc1OCCCN1CCOCC1 [Foretinib] (partner 0.25 µM)
0.9

Tell me relative viability reported for CCNC(=O)c1noc(-c2cc(C(C)C)c(O)cc2O)c1-c1ccc(CN2CCOCC2)cc1 [Luminespib] + Nc1ncn([C@H]2C[C@H](O)[C@@H](CO)O2)c(=O)n1 [Decitabine] (partner 2 µM)
0.436

Give a short answer stating reported relative viability for CN1CCN(CCOc2cc(OC3CCOCC3)c3c(Nc4c(Cl)ccc5c4OCO5)ncnc3c2)CC1 [Saracatinib] + CC1(C)CCC(c2ccc(Cl)cc2)=C(CN2CCN(c3ccc(C(=O)NS(=O)(=O)c4ccc(N[C@H](CCN5CCOCC5)CSc5ccccc5)c(S(=O)(=O)C(F)(F)F)c4)cc3)CC2)C1 [Navitoclax] (partner 0.5 µM) .
0.418

Specify relative viability for CCNC(=O)c1noc(-c2cc(C(C)C)c(O)cc2O)c1-c1ccc(CN2CCOCC2)cc1 [Luminespib] + CC(=O)c1c(C)c2cnc(Nc3ccc(N4CCNCC4)cn3)nc2n(C2CCCC2)c1=O [Palbociclib] (partner 0.5 µM) and stop.
0.354
